Can you tell me Ki for the items I'm about to list?
# assayed.target: Mu-type opioid receptor (Rattus norvegicus)
# Sequence (P33535 whole entry): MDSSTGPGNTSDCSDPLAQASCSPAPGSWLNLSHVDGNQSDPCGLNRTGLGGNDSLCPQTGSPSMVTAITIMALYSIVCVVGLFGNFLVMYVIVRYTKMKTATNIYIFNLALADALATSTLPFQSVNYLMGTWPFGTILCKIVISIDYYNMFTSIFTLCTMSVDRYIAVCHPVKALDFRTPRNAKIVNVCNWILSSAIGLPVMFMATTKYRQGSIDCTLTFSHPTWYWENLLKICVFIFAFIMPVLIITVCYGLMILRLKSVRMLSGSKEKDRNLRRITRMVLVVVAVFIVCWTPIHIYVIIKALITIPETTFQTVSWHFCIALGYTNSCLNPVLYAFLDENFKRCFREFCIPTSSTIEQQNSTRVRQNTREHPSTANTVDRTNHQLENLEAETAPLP
# procedure.text: Displacement of [3H]DAMGO from rat mu opioid receptor in brain P2 synaptosomes
Residues, ends and D or L forms follow the SMILES beside them.
Express it in nM; write the number only.

GET /value?item= N[C@@H](Cc1ccc(O)cc1)C(=O)N1CCC[C@H]1C(=O)N[C@@H](Cc1ccccc1)C(=O)N[C@@H](Cc1ccccc1)C(=O)NCCCCC/N=C(S)/N=C1/C=CC(=C2c3ccc(O)cc3Oc3cc(O)ccc32)C(C(=O)O)=C1 &field=Ki returns 252

GET /value?item= Cc1cc(O)cc(C)c1C[C@H](N)C(=O)N1Cc2ccccc2C[C@H]1C(=O)N[C@@H](CCC(=O)O)C(=O)NCCCCCC(=O)N[C@@H](CN1C(=O)c2cc3ccc(N(C)C)cc3cc2C1=O)C(N)=O &field=Ki returns 41.3

GET /value?item= CN(C)c1ccc2cc3c(cc2c1)C(=O)N(C[C@H](NC(=O)[C@@H]1CCCN1C(=O)[C@@H](N)Cc1ccc(O)cc1)C(=O)N[C@@H](Cc1ccccc1)C(N)=O)C3=O &field=Ki returns 3420

GET /value?item= CN(C)c1ccc2cc3c(cc2c1)C(=O)N(C[C@H](NC(=O)CCCCCNC(=O)[C@H](Cc1ccccc1)NC(=O)[C@H](Cc1ccccc1)NC(=O)[C@@H]1CCCN1C(=O)[C@@H](N)Cc1ccc(O)cc1)C(N)=O)C3=O (HELM PEPTIDE1{Y.P.F.F.[O=C(CCCCCN[*:1])[*:2]].[CN(C)c1ccc2cc3c(cc2c1)C(=O)N(C[C@H](N[*:1])C(=O)[*:2])C3=O].[am]}$$$$V2.0) &field=Ki returns 244

GET /value?item= Cc1cc(O)cc(C)c1C[C@H](N)C(=O)N1Cc2ccccc2C[C@H]1C(=O)N[C@@H](CCC(=O)O)C(=O)N[C@@H](CN1C(=O)c2cc3ccc(N(C)C)cc3cc2C1=O)C(N)=O (HELM PEPTIDE1{[Cc1cc(O)cc(C)c1C[C@H](N)C(=O)[*:2]].[Tic].E.[CN(C)c1ccc2cc3c(cc2c1)C(=O)N(C[C@H](N[*:1])C(=O)[*:2])C3=O].[am]}$$$$V2.0) &field=Ki returns 7880
